Test system: PC-3 prostate
protocolDescription: NCI tumour cell line growth inhibition, 48 h
quantityKind: TGI

>>> result("CN(c1ccc(NC(=O)Nc2c(Cl)cccc2Cl)cc1)c1ccnc(Nc2cccc(CS(C)(=O)=O)c2)n1")
"8.6 µM"
>>> result("CC(C)(C)C1=C(Br)C(C(C)(C)C)OP1(=O)O (stereo not given)")
"> 100 µM"
>>> result("CC(C)C(O)(C(C)C)C(C)C")
"> 100 µM"
>>> result("COc1cc2c(cc1O)c(O)cc1c3cc(OC)c(OC)cc3c[n+](C)c21")
"> 100 µM"
>>> result("CCCCC1(NN=C2CCCCC2)C(=O)N(c2ccccc2)N(c2ccccc2)C1=O")
"> 100 µM"
>>> result("O=C(/C=C/c1ccc(O)c(O)c1)OCC(OC(=O)/C=C/c1ccc(O)c(O)c1)C(=O)O (stereo not given)")
"> 100 µM"
>>> result("COc1ccc(Cn2c3c(cc(OC(C)=O)c2=O)Cc2ccccc2-3)cc1")
"30.2 µM"
>>> result("CS(=O)(=O)Nc1ccc2ccccc2c1-c1c(NS(C)(=O)=O)ccc2ccccc12")
"> 25 µM"
>>> result("N#Cc1ccc(-c2nc3c(N)ncnc3o2)cc1")
"> 100 µM"
>>> result("CCN1C(=O)c2ccc3c4c(ccc(c24)C1=O)C(=O)N(CCCNCc1ccccc1OC)C3=O")
"5.18 µM"
